- measured_on: Genome polyprotein (Coxsackievirus B3 (strain Nancy))
- Sequence (P03313 1541-1723 limits assumed): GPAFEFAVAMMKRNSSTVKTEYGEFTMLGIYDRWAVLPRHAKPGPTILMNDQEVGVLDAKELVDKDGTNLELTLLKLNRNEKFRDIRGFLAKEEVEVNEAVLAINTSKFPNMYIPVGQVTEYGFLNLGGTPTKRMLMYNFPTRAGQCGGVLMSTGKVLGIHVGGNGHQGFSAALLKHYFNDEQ
- test_description: Reversible inhibition of Coxsackievirus B3 C-terminal His6-tagged protease 3C expressed in Escherichia coli BL21(DE3) using N-Dabcyl-KTLEALFQGPPVYE-(Edans)-NH2 as substrate after 30 mins by fluorescence assay
property_label: Ki (µM)
Numbers only, in µM.

[[record]]
compound_structure_string = "CC(=O)c1cc(C(N)=O)n(C/C=C/c2ccccc2)c1"
measured_on = "Genome polyprotein (Coxsackievirus B3 (strain Nancy))"
property_label = "Ki"
readout_unit = "µM"
numeric_result = 197


# input for lookup
### Prompt Return Ki (reported value) for this molecule: NC(=O)c1cc(C(=O)C(Sc2ccccc2)Sc2ccccc2)cn1C/C=C/c1ccccc1
### Response 272
